Target: human FPR1 (Homo sapiens, UniProt P21462)
Sequence (P21462 whole entry): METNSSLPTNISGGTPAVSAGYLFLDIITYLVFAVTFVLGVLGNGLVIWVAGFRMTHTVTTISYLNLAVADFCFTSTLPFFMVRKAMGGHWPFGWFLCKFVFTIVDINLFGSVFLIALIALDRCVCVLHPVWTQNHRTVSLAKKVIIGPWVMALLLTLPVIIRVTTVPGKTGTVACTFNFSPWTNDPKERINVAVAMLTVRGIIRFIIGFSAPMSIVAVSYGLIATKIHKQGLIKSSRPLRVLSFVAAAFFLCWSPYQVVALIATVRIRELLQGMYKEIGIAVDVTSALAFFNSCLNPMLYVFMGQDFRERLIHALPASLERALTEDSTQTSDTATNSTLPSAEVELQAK
Assay: FPR1 cyclic adenosine monophosphate (cAMP) assay
Settings: CHO cells overexpressing human FPR1; forskolin 10 μM; inhibition of cAMP production; HTRF; read-out: hFPR1 cAMP2 EC50
pEC50: −log10 of the molar value.
value kind: pEC50

Worked cases, answers included:
# compound, value kind, number
measured = [
    ("COc1cc(F)c(-n2cc(C3CNC3)nc2NC(=O)c2ccc(OC(F)F)cc2)c(F)c1", "pEC50", 5.38),
    ("COc1cccc(-c2cn(-c3c(F)cc(OC)cc3F)c(NC(=O)c3ccc(OC(F)F)cc3)n2)c1", "pEC50", 7.06),
    ("COc1cc(F)c(-n2cc(C3CCN(C(=O)CCC(N)=O)CC3)nc2NC(=O)c2ccc(OC(F)F)cc2)c(F)c1", "pEC50", 7.08),
    ("COc1cc(F)c(-n2cc(-c3cccc(F)c3)nc2NC(=O)c2ccc(OC(F)F)cc2)c(F)c1", "pEC50", 6.70),
    ("COc1ccc(-n2cc(-c3nc4ccccc4s3)nc2NC(=O)c2ccc(OC(F)F)cc2)cc1", "pEC50", 7.36),
]

[A] COc1ccc(-n2cc(C3CCCNC3)nc2NC(=O)c2ccc(OC(F)F)cc2)cc1 (stereo not drawn)
[B] COc1cc(F)c(-n2cc(C3CC(N)C3)nc2NC(=O)c2ccc(OC(F)F)cc2)c(F)c1 (stereo not drawn)
[C] COc1cc(F)c(-n2cc(C3CC(NCC(F)(F)F)C3)nc2NC(=O)c2ccc(OC(F)F)cc2)c(F)c1 (stereo not drawn)
Rank the 3 compounds: largest pEC50 first, smallest last. In plain terms: list the labels in the order you were asked to.
C, A, B
(C: 7.07, A: 6.68, B: 5.27)

[1] COc1cc(F)c(-n2cc(-c3ccc(F)c(F)c3)nc2NC(=O)c2ccc(OC(F)F)cc2)c(F)c1
[2] COc1cc(F)c(-n2cc(-c3ccc(Cl)cc3)nc2NC(=O)c2ccc(OC(F)F)cc2)c(F)c1
Select one: 1 or 2 . Criterion: greater recorded pEC50. Identify your selection by its label.
2
(2: 6.85, 1: 6.49)

[a] COc1cc(F)c(-n2cc(-c3ccc(C#N)cc3)nc2NC(=O)c2ccc(OC(F)F)cc2)c(F)c1
[b] COc1cc(F)c(-n2cc(-c3ccc4ccccc4c3)nc2NC(=O)c2ccc(OC(F)F)cc2)c(F)c1
[c] COc1ccc(-n2cc(C(F)(F)F)nc2NC(=O)c2ccc(OC(F)F)cc2)cc1
[d] COc1cc(F)c(-n2cc(C(=O)NCCCO)nc2NC(=O)c2ccc(OC(F)F)cc2)c(F)c1
Rank the 4 compounds: largest pEC50 first, smallest last. In plain terms: list the labels in the order you were asked to.
c, a, b, d

[a] COc1ccc(-n2cc(-c3ccnc(Cl)c3)nc2NC(=O)c2ccc(OC(F)F)cc2)cc1
[b] COc1cc(F)c(-n2cc(C3CC(O)C3)nc2NC(=O)c2ccc(OC(F)F)cc2)c(F)c1 (stereo not drawn)
Of a and b , whose reported pEC50 is numerically smaller? Identify your selection by its label.
b

Data origin, for the record: patent US20230373930A1
